Target: TRPML2 (Homo sapiens, UniProt Q8IZK6)
Construct: expressed in transfected cells
Sequence (Q8IZK6 1-566): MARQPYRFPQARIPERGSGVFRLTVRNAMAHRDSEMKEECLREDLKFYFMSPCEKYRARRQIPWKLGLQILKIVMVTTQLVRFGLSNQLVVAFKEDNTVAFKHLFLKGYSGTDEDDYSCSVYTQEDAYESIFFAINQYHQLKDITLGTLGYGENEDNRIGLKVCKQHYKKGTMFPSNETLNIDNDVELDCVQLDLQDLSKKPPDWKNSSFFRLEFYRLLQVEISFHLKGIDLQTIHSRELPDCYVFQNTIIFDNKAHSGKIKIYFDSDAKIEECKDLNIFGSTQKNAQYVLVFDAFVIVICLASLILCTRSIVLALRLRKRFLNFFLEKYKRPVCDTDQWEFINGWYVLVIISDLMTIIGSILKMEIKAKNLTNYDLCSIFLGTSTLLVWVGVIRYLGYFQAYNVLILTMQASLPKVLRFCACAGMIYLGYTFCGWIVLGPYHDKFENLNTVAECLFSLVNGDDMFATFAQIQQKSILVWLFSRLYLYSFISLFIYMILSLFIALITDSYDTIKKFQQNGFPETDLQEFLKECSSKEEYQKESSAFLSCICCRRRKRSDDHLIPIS
Test: Fluorescent TRPML2 assay (as for TRPML1)
Type: cell-based
Conditions: Table 3, compounds 201-283
property: EC50

Some entries whose results are on file:
COC(C)(C)C(=O)N1C[C@H](C)N(c2ncnc3c2c(N2CCC2)cn3-c2cc(C#N)ccn2)C[C@H]1C | 500 to 2000 nM
C[C@@H]1CN(c2ncnc3c2c(C2CCC2)cn3-c2cc(F)cc(F)c2)[C@@H](C)CN1C(=O)CC(C)(C)C(F)(F)F | > 2000 nM

--- query ---
Lab book: EC50 of `C[C@@H]1CN(c2ncnc3c2c(C2CCC2)cn3-c2cc(C#N)ccn2)[C@@H](C)CN1C(=O)CC(C)(C)C(F)(F)F` noted as 500 to 2000 nM

====

Target: human TRPML1 (Homo sapiens)
Sequence (Q9GZU1 whole entry L15A/L16A/L577A/L578A, form open): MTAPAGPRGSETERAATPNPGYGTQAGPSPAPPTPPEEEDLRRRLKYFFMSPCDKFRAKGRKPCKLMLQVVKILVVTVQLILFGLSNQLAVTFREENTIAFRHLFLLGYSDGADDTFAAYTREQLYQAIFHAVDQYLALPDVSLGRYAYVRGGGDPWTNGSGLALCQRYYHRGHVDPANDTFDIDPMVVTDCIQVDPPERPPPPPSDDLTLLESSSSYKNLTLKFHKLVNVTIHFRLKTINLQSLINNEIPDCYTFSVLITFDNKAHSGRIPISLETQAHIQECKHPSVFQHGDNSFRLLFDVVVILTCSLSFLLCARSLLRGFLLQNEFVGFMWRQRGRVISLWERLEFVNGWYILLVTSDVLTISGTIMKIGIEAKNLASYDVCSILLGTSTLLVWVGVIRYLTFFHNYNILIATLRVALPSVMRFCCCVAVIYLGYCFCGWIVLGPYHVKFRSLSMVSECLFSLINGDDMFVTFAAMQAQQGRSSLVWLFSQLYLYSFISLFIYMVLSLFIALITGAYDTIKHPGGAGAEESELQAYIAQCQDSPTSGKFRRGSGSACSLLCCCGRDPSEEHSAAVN
Assay: Fluorescent TRPML1 assay (Fluo4-AM calcium fluorescence, HEK-293 Trex cells)
Assay type: cell-based
Conditions: Table 3, compounds 201-283
pEC50: −log10 of the molar value.
pEC50 values, listed per item

CC(C)C(=O)N1C[C@H](C)N(c2ncnc3c2c(C2CCC2)cn3-c2cccc(F)c2)C[C@H]1C [Compound 248] | < 5.70
COC(C)(C)C(=O)N1C[C@H](C)N(c2ncnc3c2c(C2CC2)cn3-c2cc(C#N)ccn2)C[C@H]1C [Compound 264] | > 7.00
C[C@@H]1CN(c2ncnc3c2c(C(F)(F)F)cn3-c2cccc(C#N)c2)[C@@H](C)CN1C(=O)C(C)(C)C [Compound 222] | > 7.00
COC(C)(C)C(=O)N1CCN(c2ncnc3c2c(-c2ccccc2F)cn3-c2cc(C#N)ccn2)[C@@H](C)C1 [Compound 242] | > 7.00
[2H]C([2H])([2H])C(C(=O)N1C[C@H](C)N(c2ncnc3c2c(-c2ccccc2F)cn3-c2cc(C#N)ccn2)C[C@H]1C)(C([2H])([2H])[2H])C([2H])([2H])[2H] [Compound 231] | > 7.00

Log: human TRPML1 (Homo sapiens), molecule COC(C)(C)C(=O)N1C[C@H](C)N(c2ncnc3c2c(C(F)(F)F)cn3-c2cccc(F)c2)C[C@H]1C [Compound 223] , pEC50 = > 7.00

The reported numbers originate from patent US20240398812A1.
